# System: Clostridium perfringens
# protocol notes: Bactericidal activity against Clostridium perfringens isolated from intra-abdominal infection and pelvic inflammatory disease patients assessed as bacterial killing at MIC after 24 hrs by time kill analysis
# Format: functional
Activity: recorded values

Solved cases (2 shown):
C[C@@H](O)[C@H]1C(=O)N2C(C(=O)O)=C(S[C@@H]3CN[C@H](C(=O)N(C)C)C3)[C@H](C)[C@H]12 [MEROPENEM] = 90%
C[C@@H](O)[C@H]1C(=O)N2C(C(=O)O)=C(S[C@@H]3CN[C@H](C(=O)Nc4cccc(C(=O)O)c4)C3)[C@H](C)[C@H]12 = 90%

Record request: Activity value, item C[C@@H](O)[C@H]1C(=O)N2C(C(=O)O)=C(S[C@@H]3CN[C@H](CNS(N)(=O)=O)C3)[C@H](C)[C@H]12 [DORIPENEM] 90%

Record request: Activity value, item C[C@@H](O)[C@H]1C(=O)N2C(C(=O)O)=C(SCCNC=N)C[C@H]12 [IMIPENEM ANHYDROUS] 90%

----------
# Test system: Porphyromonas asaccharolytica
# protocol notes: Antimicrobial activity against Porphyromonas asaccharolyticus isolated from intra-abdominal infection and pelvic inflammatory disease patients after 48 hrs by agar dilution method
# Format: functional
MIC: recorded values

Solved cases (2 shown):
Cc1ncc([N+](=O)[O-])n1CCO = ≤ 0.125 µg/mL
C[C@@H](O)[C@H]1C(=O)N2C(C(=O)O)=C(S[C@@H]3CN[C@H](CNS(N)(=O)=O)C3)[C@H](C)[C@H]12 = ≤ 0.016 µg/mL

Record request: MIC value, item CO/N=C(\C(=O)N[C@@H]1C(=O)N2C(C(=O)O)=C(CSc3nc(=O)c(O)nn3C)CS[C@H]12)c1csc(N)n1 ≤ 0.125 µg/mL

Record request: MIC value, item CCC[C@@H]1C[C@@H](C(=O)N[C@@H]([C@H]2O[C@H](SC)[C@H](O)[C@@H](O)[C@H]2O)[C@H](C)Cl)N(C)C1 ≤ 0.016 µg/mL

----------
# System: Prevotella nigrescens
# protocol notes: Antimicrobial activity against beta lactamase-positive Prevotella nigrescens isolated from intra-abdominal infection and pelvic inflammatory disease patients after 48 hrs by agar dilution method
# Assay type: functional
observed property: MIC90 (µg/mL)
The response must be a number in µg/mL with no trailing unit.

Solved cases (5 shown):
C[C@@H](O)[C@H]1C(=O)N2C(C(=O)O)=C(S[C@@H]3CN[C@H](C(=O)N(C)C)C3)[C@H](C)[C@H]12 = 0.06
C[C@@H](O)[C@H]1C(=O)N2C(C(=O)O)=C(SCCNC=N)C[C@H]12 [IMIPENEM ANHYDROUS] = 0.03
CO/N=C(\C(=O)N[C@@H]1C(=O)N2C(C(=O)O)=C(CSc3nc(=O)c(O)nn3C)CS[C@H]12)c1csc(N)n1 = 16
Cc1ncc([N+](=O)[O-])n1CCO = 1
C[C@@H](O)[C@H]1C(=O)N2C(C(=O)O)=C(S[C@@H]3CN[C@H](C(=O)Nc4cccc(C(=O)O)c4)C3)[C@H](C)[C@H]12 = 0.06

# input for lookup
Query the reported MIC90 for Prevotella nigrescens; item: C[C@@H](O)[C@H]1C(=O)N2C(C(=O)O)=C(S[C@@H]3CN[C@H](CNS(N)(=O)=O)C3)[C@H](C)[C@H]12 0.06

----------
# Tested on: Peptoniphilus asaccharolyticus
# protocol notes: Antimicrobial activity against Peptoniphilus asaccharolyticus isolated from intra-abdominal infection and pelvic inflammatory disease patients after 48 hrs by agar dilution method
# Type: functional
observed property: MIC90 (µg/mL)
The response must be a number in µg/mL with no trailing unit.

Solved cases (5 shown):
CO/N=C(\C(=O)N[C@@H]1C(=O)N2C(C(=O)O)=C(CSc3nc(=O)c(O)nn3C)CS[C@H]12)c1csc(N)n1 = 1
C[C@@H](O)[C@H]1C(=O)N2C(C(=O)O)=C(S[C@@H]3CN[C@H](C(=O)Nc4cccc(C(=O)O)c4)C3)[C@H](C)[C@H]12 = 0.06
Cc1ncc([N+](=O)[O-])n1CCO = 1
C[C@@H](O)[C@H]1C(=O)N2C(C(=O)O)=C(S[C@@H]3CN[C@H](CNS(N)(=O)=O)C3)[C@H](C)[C@H]12 = 0.03
C[C@@H](O)[C@H]1C(=O)N2C(C(=O)O)=C(S[C@@H]3CN[C@H](C(=O)N(C)C)C3)[C@H](C)[C@H]12 = 0.03

# input for lookup
Record request: MIC90 value, item C[C@@H](O)[C@H]1C(=O)N2C(C(=O)O)=C(SCCNC=N)C[C@H]12 [IMIPENEM ANHYDROUS] 0.03

----------
# Test system: Fusobacterium varium
# protocol notes: Antimicrobial activity against Fusobacterium varium isolated from intra-abdominal infection and pelvic inflammatory disease patients after 48 hrs by agar dilution method
# Assay type: functional
MIC90: recorded values
Please answer using a numeric value trailed by its unit.

Solved cases (2 shown):
C[C@@H](O)[C@H]1C(=O)N2C(C(=O)O)=C(S[C@@H]3CN[C@H](C(=O)Nc4cccc(C(=O)O)c4)C3)[C@H](C)[C@H]12 = 0.125 µg/mL
CO/N=C(\C(=O)N[C@@H]1C(=O)N2C(C(=O)O)=C(CSc3nc(=O)c(O)nn3C)CS[C@H]12)c1csc(N)n1 = 8 µg/mL

# input for lookup
Record request: MIC90 value, item C[C@@H](O)[C@H]1C(=O)N2C(C(=O)O)=C(S[C@@H]3CN[C@H](CNS(N)(=O)=O)C3)[C@H](C)[C@H]12 0.125 µg/mL

----------
# Test system: Porphyromonas asaccharolytica
# protocol notes: Antimicrobial activity against Porphyromonas asaccharolyticus isolated from intra-abdominal infection and pelvic inflammatory disease patients after 48 hrs by agar dilution method
# Assay type: functional
MIC: recorded values

Solved cases (2 shown):
C[C@@H](O)[C@H]1C(=O)N2C(C(=O)O)=C(SCCNC=N)C[C@H]12 [IMIPENEM ANHYDROUS] = ≤ 0.016 µg/mL
C[C@@H](O)[C@H]1C(=O)N2C(C(=O)O)=C(S[C@@H]3CN[C@H](C(=O)Nc4cccc(C(=O)O)c4)C3)[C@H](C)[C@H]12 = ≤ 0.016 µg/mL

# input for lookup
Query the reported MIC for Porphyromonas asaccharolytica; item: C[C@@H](O)[C@H]1C(=O)N2C(C(=O)O)=C(S[C@@H]3CN[C@H](C(=O)N(C)C)C3)[C@H](C)[C@H]12 ≤ 0.016 µg/mL

----------
# Test system: Clostridioides difficile
# protocol notes: Antimicrobial activity against Clostridium difficile isolated from intra-abdominal infection and pelvic inflammatory disease patients after 48 hrs by agar dilution method
# Type: functional
MIC50: recorded values

C[C@@H](O)[C@H]1C(=O)N2C(C(=O)O)=C(SCCNC=N)C[C@H]12 [IMIPENEM ANHYDROUS] = 8 µg/mL
C[C@@H](O)[C@H]1C(=O)N2C(C(=O)O)=C(S[C@@H]3CN[C@H](C(=O)N(C)C)C3)[C@H](C)[C@H]12 = 2 µg/mL
CCC[C@@H]1C[C@@H](C(=O)N[C@@H]([C@H]2O[C@H](SC)[C@H](O)[C@@H](O)[C@H]2O)[C@H](C)Cl)N(C)C1 = 8 µg/mL
CO/N=C(\C(=O)N[C@@H]1C(=O)N2C(C(=O)O)=C(CSc3nc(=O)c(O)nn3C)CS[C@H]12)c1csc(N)n1 = 64 µg/mL
Cc1ncc([N+](=O)[O-])n1CCO = 0.5 µg/mL
C[C@@H](O)[C@H]1C(=O)N2C(C(=O)O)=C(S[C@@H]3CN[C@H](C(=O)Nc4cccc(C(=O)O)c4)C3)[C@H](C)[C@H]12 = 4 µg/mL

# input for lookup
Record request: MIC50 value, item C[C@@H](O)[C@H]1C(=O)N2C(C(=O)O)=C(S[C@@H]3CN[C@H](CNS(N)(=O)=O)C3)[C@H](C)[C@H]12 2 µg/mL

----------
# Test system: Phocaeicola vulgatus
# protocol notes: Antimicrobial activity against beta lactamase-positive Bacteroides vulgatus isolated from intra-abdominal infection and pelvic inflammatory disease patients after 48 hrs by agar dilution method
# Assay type: functional
observed property: MIC90 (µg/mL)
The response must be a number in µg/mL with no trailing unit.

C[C@@H](O)[C@H]1C(=O)N2C(C(=O)O)=C(S[C@@H]3CN[C@H](C(=O)Nc4cccc(C(=O)O)c4)C3)[C@H](C)[C@H]12 = 2

Record request: MIC90 value, item Cc1ncc([N+](=O)[O-])n1CCO 1

----------
MIC90: recorded values
# Tested on: Fusobacterium nucleatum
# protocol notes: Antimicrobial activity against beta lactamase-positive Fusobacterium nucleatum isolated from intra-abdominal infection and pelvic inflammatory disease patients after 48 hrs by agar dilution method
# Format: functional
The response must be a number in µg/mL with no trailing unit.

Query the reported MIC90 for Fusobacterium nucleatum; item: CCC[C@@H]1C[C@@H](C(=O)N[C@@H]([C@H]2O[C@H](SC)[C@H](O)[C@@H](O)[C@H]2O)[C@H](C)Cl)N(C)C1 0.125

Query the reported MIC90 for Fusobacterium nucleatum; item: C[C@@H](O)[C@H]1C(=O)N2C(C(=O)O)=C(S[C@@H]3CN[C@H](CNS(N)(=O)=O)C3)[C@H](C)[C@H]12 0.03

Query the reported MIC90 for Fusobacterium nucleatum; item: C[C@@H](O)[C@H]1C(=O)N2C(C(=O)O)=C(S[C@@H]3CN[C@H](C(=O)N(C)C)C3)[C@H](C)[C@H]12 0.03

Query the reported MIC90 for Fusobacterium nucleatum; item: CO/N=C(\C(=O)N[C@@H]1C(=O)N2C(C(=O)O)=C(CSc3nc(=O)c(O)nn3C)CS[C@H]12)c1csc(N)n1 0.5

Query the reported MIC90 for Fusobacterium nucleatum; item: C[C@@H](O)[C@H]1C(=O)N2C(C(=O)O)=C(S[C@@H]3CN[C@H](C(=O)Nc4cccc(C(=O)O)c4)C3)[C@H](C)[C@H]12 0.03

Query the reported MIC90 for Fusobacterium nucleatum; item: C[C@@H](O)[C@H]1C(=O)N2C(C(=O)O)=C(SCCNC=N)C[C@H]12 [IMIPENEM ANHYDROUS] 0.03
